Numbers sourced from ChEMBL document CHEMBL1201862.

Some compounds, each annotated with its measured GI50.
system: OVCAR-5; test: NCI tumour cell line growth inhibition, 48 h
Active and inactive are the calls of the source. Cut-off read from the data, not from the text of the source: active = GI50 up to about 1.1 µM and inactive = higher.

[
  {
    "COMPOUND": "CC(C)c1cc2c(c(O)c1O)[C@@]1(C)CCCC(C)(C)C1=C(O)C2",
    "GI50": "1.83 µM (inactive)"
  },
  {
    "COMPOUND": "O=c1[nH]c(=O)n(C2CC(O)C(CO)O2)cc1OCCCc1ccccc1 (stereo not given)",
    "GI50": "> 100 µM (inactive)"
  },
  {
    "COMPOUND": "CC(=O)N1CCN(C23OC4(N5CCN(C(C)=O)CC5)C5C6CC(C7C6C4C72)C53)CC1 (stereo not given)",
    "GI50": "> 100 µM (inactive)"
  },
  {
    "COMPOUND": "COc1c(C)c(OC)c(C(=O)CC(C)C)c(OC)c1C",
    "GI50": "> 100 µM (inactive)"
  },
  {
    "COMPOUND": "O=C1c2ccccc2/C(=N\\c2ccc3ccccc3c2)C1(C1=C(c2ccccc2)/C(=N/c2ccc3ccccc3c2)c2ccccc21)c1ccccc1 (stereo not given)",
    "GI50": "> 57.8 µM (inactive)"
  },
  {
    "COMPOUND": "CN(C)CCCn1c(Cn2nc3ccccc3n2)nc2cc(C(F)(F)F)ccc21",
    "GI50": "> 100 µM (inactive)"
  },
  {
    "COMPOUND": "CC1=NN(c2cccc(Cl)c2)C(=N/c2nc3ccccc3s2)/C1=C\\c1ccc(Cl)cc1",
    "GI50": "22.6 µM (inactive)"
  },
  {
    "COMPOUND": "CN(C(=O)c1cc2c(s1)sc1c(=O)n(C)c3ccccc3c12)c1ccccc1",
    "GI50": "63.7 µM (inactive)"
  },
  {
    "COMPOUND": "CN(C)CCNC1=C(Cl)C(=O)c2c(O)ccc(O)c2C1=O",
    "GI50": "1.74 µM (inactive)"
  },
  {
    "COMPOUND": "C[Si](C)(c1ccccc1)[C@H]1CCCC=C1CCNC1c2ccccc2CCc2ccccc21",
    "GI50": "> 100 µM (inactive)"
  }
]

* * *

Some compounds, each annotated with its measured GI50.
tested on: MDA-N; experiment: NCI tumour cell line growth inhibition, 48 h
Calls of active or inactive are those of the source. No stated cut-off is given here; in the data, active = GI50 up to about 1.1 µM and inactive = higher.
ENDPOINT LABEL: GI50

[
  {
    "SMILES REPRESENTATION": "[N-]=[N+]=CC(=O)OC(CCl)CCl",
    "TESTED ON": "MDA-N",
    "MEASURED RESULT": "> 100 µM (inactive)"
  },
  {
    "SMILES REPRESENTATION": "O=C(CCc1ccc(O)c(O)c1)NCCc1cc(O)cc(OCc2ccccc2)c1",
    "TESTED ON": "MDA-N",
    "MEASURED RESULT": "19.5 µM (inactive)"
  },
  {
    "SMILES REPRESENTATION": "COc1cc2c3c(n(C)c(=O)c2cc1OC)-c1cc2c(cc1/C3=C\\CCCI)OCO2",
    "TESTED ON": "MDA-N",
    "MEASURED RESULT": "> 70.8 µM (inactive)"
  },
  {
    "SMILES REPRESENTATION": "CC[P+](C#Cc1ccccc1)(c1ccccc1)c1ccccc1",
    "TESTED ON": "MDA-N",
    "MEASURED RESULT": "1.56 µM (inactive)"
  }
]

* * *

system: HT-29; assay: NCI tumour cell line growth inhibition, 48 h
Activity calls are given as the source filed them. Rule as the data show it: active = GI50 up to about 1.1 µM and inactive = higher.
Some compounds, each annotated with its measured GI50.

[
  {
    "COMPOUND": "Brc1cccc(/C=N/C23CC4CC(CC(C4)C2)C3)c1",
    "GI50": "> 100 µM (inactive)"
  },
  {
    "COMPOUND": "COc1ccc(C2=C(N)c3ncccc3C2=O)cc1",
    "GI50": "> 100 µM (inactive)"
  },
  {
    "COMPOUND": "O=c1[nH]c(=S)[nH]c(-c2ccccc2)c1Cc1c(O)ccc2ccccc12",
    "GI50": "39.4 µM (inactive)"
  },
  {
    "COMPOUND": "N#CC(/C(=N/NC(=N)N)C(=O)Nc1ccccc1[N+](=O)[O-])c1nc(-c2ccc([N+](=O)[O-])cc2)cs1 (stereo not given)",
    "GI50": "> 100 µM (inactive)"
  },
  {
    "COMPOUND": "N/N=C(\\CC1OC(=O)c2ccccc21)c1ccco1 (stereo not given)",
    "GI50": "> 100 µM (inactive)"
  },
  {
    "COMPOUND": "CCN(CC)CCSc1nc2cccc([N+](=O)[O-])c2[nH]1",
    "GI50": "> 100 µM (inactive)"
  },
  {
    "COMPOUND": "Cc1cc(=O)oc2cc(OCc3nc4ccccc4c(=O)n3-c3ccccc3)ccc12",
    "GI50": "> 100 µM (inactive)"
  },
  {
    "COMPOUND": "CC(=O)Nc1ccc(S(=O)(=O)N/N=C/CN2C(=O)c3ccccc3C2=O)cc1",
    "GI50": "> 100 µM (inactive)"
  },
  {
    "COMPOUND": "CSc1nc(C)c(Br)c(=O)n1C1OC(COC(C)=O)C(OC(C)=O)C(OC(C)=O)C1OC(C)=O (stereo not given)",
    "GI50": "> 100 µM (inactive)"
  },
  {
    "COMPOUND": "CCOC(=O)c1cnccc1CC1(C#N)c2ccccc2C=CN1C(=O)c1ccccc1 (stereo not given)",
    "GI50": "12.3 µM (inactive)"
  },
  {
    "COMPOUND": "Cc1c(-c2ccccc2)c(-c2ccc(OCCN(C)C)cc2)n2ccccc12",
    "GI50": "1.82 µM (inactive)"
  },
  {
    "COMPOUND": "O=C(NCCO)c1ccc([N+](=O)[O-])cc1",
    "GI50": "> 100 µM (inactive)"
  },
  {
    "COMPOUND": "CNC(C)C(O)c1ccc2oc3cc(=O)c4ccccc4c-3nc2c1 (stereo not given)",
    "GI50": "36.3 µM (inactive)"
  },
  {
    "COMPOUND": "CC(=O)Nc1ccc(COC(O)CN2CCCCC2)cc1[N+](=O)[O-] (stereo not given)",
    "GI50": "> 100 µM (inactive)"
  },
  {
    "COMPOUND": "COC(=O)C1(NC(=O)C(CC(=O)OCc2ccccc2)NC(=O)OCc2ccccc2)CCCCCCC1 (stereo not given)",
    "GI50": "24.6 µM (inactive)"
  }
]

* * *

test system: HT-29; test: NCI tumour cell line growth inhibition, 48 h
The source made the active and inactive calls. Rule as the data show it: active = GI50 up to about 1.1 µM and inactive = higher.

[
  {
    "COMPOUND": "N=C(N)NS(=O)(=O)c1ccc(NC(=O)c2ccc3nc4ccccc4c(N)c3c2)cc1",
    "TESTED ON": "HT-29",
    "GI50": "> 100 µM (inactive)"
  },
  {
    "COMPOUND": "C=CCCCCCCCCCP(=O)(c1ccccc1)c1ccc2c(c1)OCCOCCOCCOCCO2 (centres undefined)",
    "TESTED ON": "HT-29",
    "GI50": "12.2 µM (inactive)"
  },
  {
    "COMPOUND": "O=C(Cc1ccccc1)N/N=C(/c1nc2ccc([N+](=O)[O-])cc2nc1O)C(O)c1ccco1 (centres undefined)",
    "TESTED ON": "HT-29",
    "GI50": "> 100 µM (inactive)"
  },
  {
    "COMPOUND": "COC(=O)c1cc(CNCCc2c[nH]c3ccccc23)on1",
    "TESTED ON": "HT-29",
    "GI50": "> 100 µM (inactive)"
  },
  {
    "COMPOUND": "O=c1[nH]nc(Cc2ccccc2)n1/N=C/c1ccccc1Cl",
    "TESTED ON": "HT-29",
    "GI50": "> 100 µM (inactive)"
  },
  {
    "COMPOUND": "C/C(=C/C(=O)N(C)c1ccccc1Cl)O[Si](C(C)C)(C(C)C)C(C)C",
    "TESTED ON": "HT-29",
    "GI50": "17.6 µM (inactive)"
  },
  {
    "COMPOUND": "CN(C)CCCNC(=O)c1cccc2nc3ccccc3nc12",
    "TESTED ON": "HT-29",
    "GI50": "6.75 µM (inactive)"
  },
  {
    "COMPOUND": "C=CCNC(=O)NC(=O)CSC1=NC(=O)C2(NN1)c1ccccc1-c1ccccc12",
    "TESTED ON": "HT-29",
    "GI50": "> 10 µM (inactive)"
  },
  {
    "COMPOUND": "C/C(=N\\NS(=O)(=O)c1ccc(C)cc1)C(CN1CCOCC1)C(c1ccccc1)c1c(O)c2ccccc2oc1=O (centres undefined)",
    "TESTED ON": "HT-29",
    "GI50": "> 100 µM (inactive)"
  }
]
